Some compounds, each annotated with its measured emission maximum.
assay: solvent given as SMILES
study.conditions: in CC(C)=O
observation.type: emission maximum (nm)

[[record]]
smiles_input = "CCN(CC)c1ccc2cc(/C=C/C(=O)/C=C(O)/C=C/c3cc4ccc(N(CC)CC)cc4oc3=O)c(=O)oc2c1"
unit_of_measurement = "nm"
measured_value = 598

[[record]]
smiles_input = "COc1cc(OC)cc(C2=[O+][B-](F)(F)OC(c3ccccc3)=C2)c1"
unit_of_measurement = "nm"
measured_value = 590.78

[[record]]
smiles_input = "O=C1c2ccccc2-c2ccc(N3CCN(c4ccccc4)CC3)c3cccc1c23"
unit_of_measurement = "nm"
measured_value = 601


src = the Deep4Chem optical property database
